target: Nuclear receptor ROR-gamma (Homo sapiens); experiment: qHTS assay to identify small molecule antagonists of the retinoid-related orphan receptor gamma (ROR-gamma) signaling pathway (AID 1159521; also: nearly all actives have a fitted effect of over 50% in size); settings: Tet-on RORgamma CHO cells, RORE-luciferase, 16 h; series mostly up to 92.4 µM
Results filed as inconclusive are left out. The source made the active and inactive calls. Calls follow the shape of the dose curve; as a rule, active = well fitted inhibition curve with a large enough effect in the repeat runs; inconclusive = weak or mixed curves, or effect the other way; inactive = no such curve, though single readings can be large or run the other way.
Can you answer with just one of these options? label 1 = active, label 0 = inactive

Use the examples below as a reference point.
INSERT INTO assay_data (compound, assaytarget, label) VALUES
  ('ClCc1ccccc1Cl', 'Nuclear receptor ROR-gamma (Homo sapiens)', 'label 0'),
  ('CCCCCCCCCCCC[N+](C)(C)CCOc1ccccc1', 'Nuclear receptor ROR-gamma (Homo sapiens)', 'label 1'),
  ('CCC1(CCC(C)C)C(=O)NC(=O)NC1=O', 'Nuclear receptor ROR-gamma (Homo sapiens)', 'label 0'),
  ('O=C1CC[C@@]2(O)[C@H]3Cc4ccc(O)c5c4[C@@]2(CCN3CC2CC2)[C@H]1O5', 'Nuclear receptor ROR-gamma (Homo sapiens)', 'label 0'),
  ('CN1C(=O)CN=C(c2ccccc2)c2cc([N+](=O)[O-])ccc21', 'Nuclear receptor ROR-gamma (Homo sapiens)', 'label 0'),
  ('COc1ccc(C(=O)c2c(C)n(CCN3CCOCC3)c3ccccc23)cc1', 'Nuclear receptor ROR-gamma (Homo sapiens)', 'label 0');

Query: Called result for "Nc1cc(Cl)cc(C(=O)O)c1Cl"
Response: label 0

Query: Similarly, "CC(C)[C@@H](C(=O)O[C@@H](C#N)c1cccc(Oc2ccccc2)c1)c1ccc(Cl)cc1" ?
Response: label 1

Query: What do we get for "O=C(Cc1ccccc1)c1ccccc1" ?
Response: label 0

Query: Entry to check: CCCSP(=S)(OCC)Oc1ccc(SC)cc1 (stereo unspecified)
Response: label 0

Query: // query: "COC1=CC(=O)O[C@@H](/C=C/c2ccc3c(c2)OCO3)C1"
Response: label 0

Query: Try this compound too: "O=C(Cc1ccccc1)OCCc1ccccc1"
Response: label 0

Query: Ok, now "CON(C)C(=O)Nc1ccc(Cl)cc1"
Response: label 0

Query: Now the same for "CC(C)c1ccc(NC(=O)N(C)C)cc1"
Response: label 0

Query: Then this compound: CCc1cnc(C2=NC(C)(C(C)C)C(=O)N2)c(C(=O)O)c1 (stereo unspecified)
Response: label 0

Query: Next record, please: CC(C)(C)NCC(O)c1ccccc1Cl (stereo unspecified)
Response: label 0

Query: // repeat for "CC(C)CCCCCCCOC(=O)c1ccccc1C(=O)OCCCCCCCC(C)C" and report
Response: label 0

Query: Please answer likewise for "O=S(=O)(c1ccccc1)c1ccccc1"
Response: label 0

Query: Then CCC(=O)O[C@@H]1C=C2CCC3C(CCC4(C)C3CC[C@@H]4OC(=O)CC)C2CC1 (stereo partly specified) ?
Response: label 0

Query: Try "O=C(N[C@H]1CN2CCC1CC2)c1ccc2c(c1)OCCO2" next.
Response: label 0

Query: Here is the next compound: "CN(C)N"
Response: label 0

Query: Subsequent entry: C=CCOCC1CO1 (stereo unspecified)
Response: label 0

Query: Now this one: "CCOC(C(=O)OCCN(C)C)(c1ccccc1)c1ccccc1"
Response: label 0

Query: Follow-up item: "CC(C)(C#N)C(C)(C)C#N"
Response: label 0

Query: Also need "CN1CC[C@]23c4c5ccc(O)c4O[C@H]2[C@@H](O)CC[C@H]3[C@H]1C5" , thanks.
Response: label 0

Query: Also "Cc1nc2ccccc2c(=O)n1-c1ccccc1Cl" , if possible.
Response: label 0
